All figures here come from the supplement of paper PMC12420376.

tested on: KURAMOCHI; test: drug sensitivity score (DSS2) on cancer cell count; higher = more sensitive; extreme values may be limits of the assay; settings: co-cultured fibroblast: BJHTERT; 72 h
Returns one of true (1) or false (0); true (1) when drug sensitivity score is >= 9 DSS.

# count of solved cases: 5
compound=CC(=O)N(O)CCCCCNC(=O)CCC(=O)N(O)CCCCCNC(=O)CCC(=O)N(O)CCCCCN group="false (0)"
compound=O=C(/C=C/c1cccc(S(=O)(=O)Nc2ccccc2)c1)NO group="true (1)"
compound=CCN(CC)CCNC(=O)c1c(C)[nH]c(/C=C2\C(=O)Nc3ccc(F)cc32)c1C group="false (0)"
compound=NC(=O)Nc1cc(-c2cccc(F)c2)sc1C(=O)N[C@H]1CCCNC1 group="false (0)"
compound=NC(=O)N1CCC(CC(=O)N2CCC([C@H]3c4ncc(Br)cc4CCc4cc(Cl)cc(Br)c43)CC2)CC1 group="true (1)"

Let's switch to this compound now.
Assess whether reported drug sensitivity score for Cn1cnc2c(F)c(Nc3ccc(Br)cc3Cl)c(C(=O)NOCCO)cc21 sits at 9 DSS or higher.
true (1)
